- testDetails: qHTS assay to identify small molecule agonists of H2AX - cell viability counter screen (AID 1224847); also: nearly all actives have a fitted effect of over 30% in size
- testSettings: CHO-K1 viability, CellTiter-Glo luminescence, 3 h; series mostly up to 154 µM
Records with an inconclusive call do not appear. Calls of active or inactive are those of the source. Calls follow the shape of the full dose curve.
Return exactly one item of label 1 = active, label 0 = inactive

# count of solved cases: 2
O=C(O)Cc1ccc2c(c1)C(=O)c1ccccc1CO2 = label 0
CC(N=C(NC#N)Nc1ccncc1)C(C)(C)C (stereo not drawn) = label 0

**Query** Record request — test call for CC[C@H](C)COC(=O)/C=C/c1ccc(N=Cc2ccc(OC)cc2)cc1
**Result** label 1
